species: Cavia porcellus; assay: Irreversible antagonism to morphine was evaluated after 30 min incubation of GPI with the compound at 200 nM conc.; format: functional
Consider the following molecules and their measured IC50 ratio readings.
Readout Label: IC50 ratio

                                   molecule  number
0  O=C(CI)N[C@@H]1CCC2(O)C3Cc4ccc(O)c5c4C2(CCN3CC2CC2)[C@H]1O5 (stereo partly drawn)     2.1
1  COC(=O)/C=C/C(=O)N[C@H]1CC[C@@]2(O)[C@H]3Cc4ccc(O)c5c4[C@@]2(CCN3CC2CC2)[C@H]1O5    0.87
2  Oc1ccc2c3c1O[C@H]1[C@H](N=C=S)CC[C@@]4(O)C(C2)N(CC2CC2)CCC314 (stereo partly drawn)    14.9
3  CCC(=O)N[C@H]1CCC2(O)C3Cc4ccc(O)c5c4C2(CCN3CC2CC2)[C@H]1O5 (stereo partly drawn)       1
4  C=CC(=O)N[C@@H]1CCC2(O)C3Cc4ccc(O)c5c4C2(CCN3CC2CC2)[C@H]1O5 (stereo partly drawn)     4.2
5  COC(=O)/C=C\C(=O)N[C@@H]1CC[C@@]2(O)C3Cc4ccc(O)c5c4C2(CCN3CC2CC2)[C@H]1O5 (stereo partly drawn)    0.63
6  C=CC(=O)N[C@H]1CCC2(O)C3Cc4ccc(O)c5c4C2(CCN3CC2CC2)[C@H]1O5 (stereo partly drawn)     1.2
7  Oc1ccc2c3c1O[C@H]1[C@@H](N=C=S)CC[C@@]4(O)C(C2)N(CC2CC2)CCC314 (stereo partly drawn)     2.4
